# SYSTEM_UNDER_TEST: Rhodopsin kinase GRK7 (Homo sapiens) (UniProt Q8WTQ7);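 also: mean percent inhibition of GRK7, profiled as part of the GSK PKIS screen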
# Sequence (Q8WTQ7 whole entry): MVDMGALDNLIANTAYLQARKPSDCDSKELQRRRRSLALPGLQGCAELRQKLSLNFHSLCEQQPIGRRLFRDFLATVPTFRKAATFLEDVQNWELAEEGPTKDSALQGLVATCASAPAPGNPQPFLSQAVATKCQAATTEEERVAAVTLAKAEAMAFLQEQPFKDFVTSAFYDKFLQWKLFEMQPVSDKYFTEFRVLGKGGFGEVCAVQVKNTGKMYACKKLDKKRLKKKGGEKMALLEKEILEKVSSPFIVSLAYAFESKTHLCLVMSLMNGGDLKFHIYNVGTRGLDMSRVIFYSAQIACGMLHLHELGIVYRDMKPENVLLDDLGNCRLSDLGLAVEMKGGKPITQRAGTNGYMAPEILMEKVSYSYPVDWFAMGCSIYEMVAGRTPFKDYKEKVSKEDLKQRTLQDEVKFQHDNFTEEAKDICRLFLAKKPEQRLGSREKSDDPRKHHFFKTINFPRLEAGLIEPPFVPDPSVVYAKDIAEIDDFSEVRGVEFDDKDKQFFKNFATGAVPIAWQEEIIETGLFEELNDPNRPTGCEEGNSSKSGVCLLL
# SETTINGS: at 1 µM

SAMPLE_SMILES: COc1cc(Nc2nccc(-c3cnn4ncccc34)n2)cc(OC)c1
inhibition / %: 9.43
//
SAMPLE_SMILES: CCS(=O)(=O)c1ccc(OC)c(Nc2ncc(-c3cccc(OC)c3)o2)c1
inhibition / %: -8.47
//
SAMPLE_SMILES: c1ccc(Nc2ncc(-c3ccccc3)o2)cc1
inhibition / %: 4.71
//
SAMPLE_SMILES: CS(=O)(=O)CCNCc1nc(-c2ccc3ncnc(Nc4ccc(OCc5cccc(C(F)(F)F)c5)cc4)c3c2)cs1
inhibition / %: -1.01
//
SAMPLE_SMILES: Nc1nccc(-c2c(-c3ccc(F)cc3)nn3cc(C(F)(F)F)ccc23)n1
inhibition / %: 4.14
//
SAMPLE_SMILES: NS(=O)(=O)c1ccc(-c2cc3ccncc3cc2OCc2ccccc2)cc1
inhibition / %: 6.27
//
SAMPLE_SMILES: CN(C)CCCn1c(-c2nonc2N)nc2cnccc21
inhibition / %: 5.07
//
SAMPLE_SMILES: COc1cc2ncnc(Nc3ccc4c(cnn4Cc4ccccc4)c3)c2cc1OC
inhibition / %: 2.89
//
SAMPLE_SMILES: O=C1Nc2ccccc2/C1=C/Nc1ccc2[nH]c(=O)[nH]c2c1
inhibition / %: 15.9
//
SAMPLE_SMILES: CN(C)C(=O)O[C@@H]1CN[C@@H](C#Cc2cc3ncnc(Nc4ccc(OCc5cccc(F)c5)c(Cl)c4)c3s2)C1
inhibition / %: 11.4
//
SAMPLE_SMILES: [O-][S+]1CCN(Cc2ccc(-c3ccc4ncnc(Nc5ccc(OCc6ccccc6)c(Cl)c5)c4c3)o2)CC1
inhibition / %: -2.22
//
SAMPLE_SMILES: ON=C1CCc2cc(-c3nc(C4CCNCC4)[nH]c3-c3ccncc3)ccc21
inhibition / %: 1.83
//
SAMPLE_SMILES: Nc1nccc(C#Cc2cncnc2Nc2ccc(OCc3cccc(F)c3)c(Cl)c2)n1
inhibition / %: 1.2
//
SAMPLE_SMILES: Cc1ccc2c(c1)/C(=N/Nc1ccc(S(N)(=O)=O)cc1)C(=O)N2
inhibition / %: 4.95
//
SAMPLE_SMILES: FC(F)(F)c1ccc(-c2nn3ncccc3c2-c2ccnc(Nc3ccc4c(c3)OCCO4)n2)cc1
inhibition / %: 11.6
//
SAMPLE_SMILES: CCn1c(-c2nonc2N)nc2ccc(F)cc21
inhibition / %: 11.3
//
SAMPLE_SMILES: CN(C)c1cc2c(Nc3ccc4c(cnn4Cc4ccccc4)c3)ncnc2cn1
inhibition / %: 3.15
//
SAMPLE_SMILES: c1ccc(Cc2nc3ccc(Nc4ncnc5ccccc45)cc3[nH]2)cc1
inhibition / %: -1.96
//
SAMPLE_SMILES: CN(C)C(=O)O[C@H]1CN[C@H](C#Cc2cc3ncnc(Nc4ccc(OCc5cccc(F)c5)c(Cl)c4)c3s2)C1
inhibition / %: 8.33
//
SAMPLE_SMILES: COc1cc2ncn(-c3cc(OCc4ccccc4S(C)(=O)=O)c(C#N)s3)c2cc1OC
inhibition / %: 40.4

###

# SYSTEM_UNDER_TEST: Serine/threonine-protein kinase Nek2 (Homo sapiens)
# Sequence (whole entry): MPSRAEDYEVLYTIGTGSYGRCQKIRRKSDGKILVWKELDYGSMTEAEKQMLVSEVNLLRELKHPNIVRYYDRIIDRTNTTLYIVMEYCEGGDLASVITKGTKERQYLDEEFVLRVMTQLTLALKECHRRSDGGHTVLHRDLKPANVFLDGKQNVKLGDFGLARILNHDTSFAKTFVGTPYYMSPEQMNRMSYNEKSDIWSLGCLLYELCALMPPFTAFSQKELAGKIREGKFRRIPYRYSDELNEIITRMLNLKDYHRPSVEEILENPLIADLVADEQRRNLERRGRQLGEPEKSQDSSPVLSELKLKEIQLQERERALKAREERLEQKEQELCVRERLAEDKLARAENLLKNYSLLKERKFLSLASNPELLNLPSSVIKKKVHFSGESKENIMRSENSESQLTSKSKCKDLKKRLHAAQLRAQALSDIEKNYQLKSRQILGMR
# SETTINGS: at 1 µM
READOUT_KIND: inhibition (%)

SAMPLE_SMILES: FC(F)(F)c1ccc(-c2nn3ncccc3c2-c2ccnc(Nc3ccc4c(c3)OCCO4)n2)cc1
SYSTEM_UNDER_TEST: Serine/threonine-protein kinase Nek2 (Homo sapiens)
OBSERVED_VALUE: 1.32
//
SAMPLE_SMILES: C[C@@H](Oc1cc(-n2cnc3ccc(OC[C@@H](O)CO)cc32)sc1C(N)=O)c1ccccc1Cl
SYSTEM_UNDER_TEST: Serine/threonine-protein kinase Nek2 (Homo sapiens)
OBSERVED_VALUE: 19.7
//
SAMPLE_SMILES: ON=C1CCc2cc(-c3nc(C4CCNCC4)[nH]c3-c3ccncc3)ccc21
SYSTEM_UNDER_TEST: Serine/threonine-protein kinase Nek2 (Homo sapiens)
OBSERVED_VALUE: 1.18
//
SAMPLE_SMILES: CN(C)c1cc2c(Nc3ccc4c(cnn4Cc4ccccc4)c3)ncnc2cn1
SYSTEM_UNDER_TEST: Serine/threonine-protein kinase Nek2 (Homo sapiens)
OBSERVED_VALUE: 3.45
//
SAMPLE_SMILES: Cc1ccc(Nc2ccnc(Nc3cccc(C(N)=O)c3)n2)cc1O
SYSTEM_UNDER_TEST: Serine/threonine-protein kinase Nek2 (Homo sapiens)
OBSERVED_VALUE: 2.98
//
SAMPLE_SMILES: NS(=O)(=O)c1cccc(-c2cc3ccncc3cc2OCc2ccccc2)c1
SYSTEM_UNDER_TEST: Serine/threonine-protein kinase Nek2 (Homo sapiens)
OBSERVED_VALUE: 6.81
//
SAMPLE_SMILES: Cc1ccc(NC(=O)CC2CC2)cc1-c1ccc(C(=O)NCC2CC2)cc1
SYSTEM_UNDER_TEST: Serine/threonine-protein kinase Nek2 (Homo sapiens)
OBSERVED_VALUE: 3.66
//
SAMPLE_SMILES: CCS(=O)(=O)c1ccc(OC)c(Nc2ncc(-c3cccc(OC)c3)o2)c1
SYSTEM_UNDER_TEST: Serine/threonine-protein kinase Nek2 (Homo sapiens)
OBSERVED_VALUE: 2.94
//
SAMPLE_SMILES: COc1cccc(-n2ncc3c(N/N=C/c4ccc(S(C)(=O)=O)cc4)ncnc32)c1
SYSTEM_UNDER_TEST: Serine/threonine-protein kinase Nek2 (Homo sapiens)
OBSERVED_VALUE: 1.84
//
SAMPLE_SMILES: CCn1c(-c2nonc2N)nc2c(C#CC(C)(C)O)nc(OCCNC)cc21
SYSTEM_UNDER_TEST: Serine/threonine-protein kinase Nek2 (Homo sapiens)
OBSERVED_VALUE: 2.6
//
SAMPLE_SMILES: CN1CCN(C(=O)c2ccc(NC(=O)Nc3ccc(N(C)c4ccnc(Nc5ccc(CS(C)(=O)=O)cc5)n4)cc3)cc2)CC1
SYSTEM_UNDER_TEST: Serine/threonine-protein kinase Nek2 (Homo sapiens)
OBSERVED_VALUE: 3.14
//
SAMPLE_SMILES: Cc1ccc(O)cc1Nc1ccnc2ccc(S(C)(=O)=O)cc12
SYSTEM_UNDER_TEST: Serine/threonine-protein kinase Nek2 (Homo sapiens)
OBSERVED_VALUE: 4.61
//
SAMPLE_SMILES: CN(c1ccc(NC(=O)Nc2ccc(OC(F)(F)F)cc2)cc1)c1ccnc(Nc2cccc(S(N)(=O)=O)c2)n1
SYSTEM_UNDER_TEST: Serine/threonine-protein kinase Nek2 (Homo sapiens)
OBSERVED_VALUE: 3.03
//
SAMPLE_SMILES: NS(=O)(=O)c1ccc(NC=C2C(=O)Nc3ccc4ncsc4c32)cc1
SYSTEM_UNDER_TEST: Serine/threonine-protein kinase Nek2 (Homo sapiens)
OBSERVED_VALUE: 8.12
//
SAMPLE_SMILES: Cc1cc(O)cc(C)c1/C=C/c1cncc(C(=O)N(C)C)c1
SYSTEM_UNDER_TEST: Serine/threonine-protein kinase Nek2 (Homo sapiens)
OBSERVED_VALUE: 3.87
//
SAMPLE_SMILES: O=S(=O)(CCOCc1ccc(-c2ccc3ncnc(Nc4ccc(OCc5cccc(F)c5)c(Cl)c4)c3c2)o1)c1ccccc1
SYSTEM_UNDER_TEST: Serine/threonine-protein kinase Nek2 (Homo sapiens)
OBSERVED_VALUE: 2.18
//
SAMPLE_SMILES: Nc1nccc(-c2c(-c3ccc(F)cc3)ncn2CCCN2CCOCC2)n1
SYSTEM_UNDER_TEST: Serine/threonine-protein kinase Nek2 (Homo sapiens)
OBSERVED_VALUE: 5.54
//
SAMPLE_SMILES: COC(=O)c1ccc2c(c1)C(=Cc1cc(Br)c(O)c(Br)c1)C(=O)N2
SYSTEM_UNDER_TEST: Serine/threonine-protein kinase Nek2 (Homo sapiens)
OBSERVED_VALUE: 2.86
//
SAMPLE_SMILES: COc1cccc(-n2ncc3c(N/N=C/c4ccc(C)cc4)ncnc32)c1
SYSTEM_UNDER_TEST: Serine/threonine-protein kinase Nek2 (Homo sapiens)
OBSERVED_VALUE: 10.7
//
SAMPLE_SMILES: O=C1Nc2ccc(-c3cccnc3)cc2C1=Cc1cc(Br)c(O)c(Br)c1
SYSTEM_UNDER_TEST: Serine/threonine-protein kinase Nek2 (Homo sapiens);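 also: reported values are mean percent inhibition of NEK2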
OBSERVED_VALUE: 2.79
